# System: Huh-7
# protocol summary: Cytotoxicity against human HuH7 cells by MTT assay
# Format: functional, cell-based
pIC50: −log10 of the molar value.
readout name: pIC50

Problem: Which pIC50 value belongs to "CN1C(=O)[C@]2(Cc3c[nH]c4ccccc34)SSSS[C@@]1(CO)C(=O)N2C" ?
Result: 5.61 to 6.03
